The measured values listed here are drawn from the supplement of paper PMC10567573.

B1: FAM50A (parent)
chain: HIFPASRWEPYDPEKKWDKYTIR

Variants of: B1
procedure-summary: protein stability index of a GFP-peptide fusion (GPS, HEK-293T) (PSI 1-6); higher = more stable;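 further: lentivirally expressed fusions sorted by FACS into six bins by GFP to DsRed ratio, PSI derived from sequencing read proportions per bin multiplied by bin number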
condition-info: c terminus: native
Decision: protein stability index >= 2 yields Met, all other cases yield Not met.

variant_name=T21P label_class=Met
variant_name=Y20D label_class=Met
variant_name=T21K label_class="Not met"
variant_name=E14N label_class=Met
variant_name=Y20R label_class=Met
variant_name=R7Y label_class="Not met"
variant_name=H1V label_class="Not met"
variant_name=A5Y label_class="Not met"
variant_name=I22F label_class=Met
variant_name=W17R label_class=Met
variant_name=P13A label_class=Met
variant_name=W8K label_class=Met
variant_name=T21N label_class=Met
variant_name=I22N label_class=Met
variant_name=K16Q label_class=Met
variant_name=A5P label_class=Met
variant_name=W8L label_class=Met
variant_name=R23W label_class="Not met"
variant_name=R23F label_class="Not met"
variant_name=P10C label_class=Met
variant_name=I2L label_class=Met
variant_name=F3N label_class=Met
variant_name=E14S label_class=Met
variant_name=F3V label_class=Met
variant_name=E9K label_class="Not met"
variant_name=W17D label_class=Met
variant_name=F3E label_class=Met
variant_name=H1W label_class="Not met"
variant_name=E9T label_class="Not met"
variant_name=R23H label_class=Met
variant_name=R7T label_class=Met
variant_name=Y11W label_class=Met
variant_name=E9A label_class=Met
variant_name=K15W label_class=Met
variant_name=I2E label_class=Met
variant_name=K16A label_class="Not met"
variant_name=K15N label_class="Not met"
variant_name=D12Y label_class="Not met"
variant_name=P13S label_class=Met
variant_name=K16E label_class=Met
variant_name=E14P label_class=Met
variant_name=P10G label_class=Met
variant_name=R23I label_class=Met
variant_name=W17G label_class=Met
variant_name=K19S label_class="Not met"
variant_name=K15G label_class=Met
variant_name=E9H label_class="Not met"
variant_name=I22E label_class=Met
variant_name=I2T label_class=Met
variant_name=I2C label_class=Met
variant_name=P4H label_class=Met
variant_name=R23D label_class=Met
variant_name=W17Q label_class=Met
variant_name=R7C label_class="Not met"
variant_name=P10D label_class=Met
variant_name=P4E label_class=Met
variant_name=F3A label_class=Met
variant_name=Y11S label_class=Met
variant_name=K16H label_class="Not met"
variant_name=Y11K label_class=Met
variant_name=D18G label_class=Met
variant_name=Y20N label_class=Met
variant_name=T21E label_class=Met
variant_name=K19F label_class=Met
variant_name=Y11R label_class=Met
variant_name=S6A label_class=Met
variant_name=E14V label_class="Not met"
variant_name=P13W label_class="Not met"
variant_name=A5G label_class=Met
variant_name=K15Q label_class=Met
variant_name=Y11A label_class=Met
variant_name=H1I label_class="Not met"
variant_name=I22Y label_class=Met
variant_name=E9I label_class=Met
variant_name=Y20F label_class=Met
